Attribute: log10 IC50
Target: hERG (Homo sapiens, UniProt Q12809)
Sequence (Q12809 whole entry): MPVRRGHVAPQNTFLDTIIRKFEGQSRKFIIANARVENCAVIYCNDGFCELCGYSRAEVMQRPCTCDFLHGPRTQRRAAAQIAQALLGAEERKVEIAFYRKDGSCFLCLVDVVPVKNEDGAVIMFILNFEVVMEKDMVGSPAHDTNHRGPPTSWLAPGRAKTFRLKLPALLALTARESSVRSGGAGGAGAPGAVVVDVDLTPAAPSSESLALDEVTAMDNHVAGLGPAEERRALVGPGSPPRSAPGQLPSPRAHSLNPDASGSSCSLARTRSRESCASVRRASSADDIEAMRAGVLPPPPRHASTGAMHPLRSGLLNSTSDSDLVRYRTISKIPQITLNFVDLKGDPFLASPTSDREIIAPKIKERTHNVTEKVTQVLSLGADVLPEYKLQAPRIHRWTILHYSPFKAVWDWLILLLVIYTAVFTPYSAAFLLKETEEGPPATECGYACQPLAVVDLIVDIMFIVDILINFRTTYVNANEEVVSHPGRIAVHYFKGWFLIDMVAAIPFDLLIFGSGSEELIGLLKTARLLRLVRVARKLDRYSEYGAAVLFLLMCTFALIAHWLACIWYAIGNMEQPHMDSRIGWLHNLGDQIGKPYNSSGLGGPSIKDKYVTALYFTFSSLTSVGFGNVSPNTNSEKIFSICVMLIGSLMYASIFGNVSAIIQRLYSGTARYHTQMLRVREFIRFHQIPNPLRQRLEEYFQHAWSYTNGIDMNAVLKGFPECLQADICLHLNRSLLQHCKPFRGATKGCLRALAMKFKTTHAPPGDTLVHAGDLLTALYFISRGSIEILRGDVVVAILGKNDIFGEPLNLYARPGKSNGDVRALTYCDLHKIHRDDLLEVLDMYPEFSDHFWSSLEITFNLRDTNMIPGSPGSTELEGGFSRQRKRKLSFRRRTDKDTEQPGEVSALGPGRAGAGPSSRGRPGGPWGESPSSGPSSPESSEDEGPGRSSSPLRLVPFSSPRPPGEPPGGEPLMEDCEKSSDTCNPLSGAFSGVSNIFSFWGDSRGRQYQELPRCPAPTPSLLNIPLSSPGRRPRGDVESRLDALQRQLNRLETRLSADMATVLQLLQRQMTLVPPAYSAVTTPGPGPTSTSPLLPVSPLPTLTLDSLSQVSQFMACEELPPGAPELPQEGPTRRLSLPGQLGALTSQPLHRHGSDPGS
Experiment: cell-based
Settings: (-LOG10(IC50), µM)
Parameter: log10 IC50 (log10 of the value in µM)

COc1ccc2cc(S(=O)(=O)N[C@H](CC(=O)N[C@H](Cc3ccc(CN4[C@H](C)CCC[C@@H]4C)cc3)C(=O)N(C)C(C)C)c3ccc4c(c3)OCO4)ccc2c1 = 0.85
CCCCN(CCCC)CCCOC(=O)c1ccc(N)cc1 = 1.16
Clc1cnc(Oc2ccc(Oc3ncc(Cl)cc3Cl)cc2)c(Cl)c1 = 1.24
C=CC(=O)OCC1CC2CC1C1CCC(COC(=O)C=C)C21 (stereo not shown) [Tricyclodecanedimethanol diacrylate] = 1.56
Brc1ccc(Oc2ccc(Br)cc2)cc1 = 1.27
CCOC(=O)C1(c2ccccc2)CCN(CCc2ccc(N)cc2)CC1 = 1.26
COc1c(C(C)(C)C)cc([N+](=O)[O-])c(C)c1[N+](=O)[O-] = 1.31
CCOP(=S)(OCC)SCCSCC = 1.64
CCN1CCCC1CNC(=O)c1cc(S(N)(=O)=O)ccc1OC (stereo not shown) [Sulpiride] = 1.54
CCN(CC)CCOc1ccccc1C(=O)CCc1ccccc1 = 0.51
NCCNc1cccc2ccccc12 = 1.60
C[C@@H]1CC[C@H]2C(C)(C)[C@H]3C[C@@]12CC[C@@]3(C)O [(+)-Cedrol] = 1.64
N#Cc1ccc(CC(=NNC(=O)Nc2ccc(OC(F)(F)F)cc2)c2cccc(C(F)(F)F)c2)cc1 = 1.12
CCOC(=O)C(C)Oc1ccc(Oc2nc3ccc(Cl)cc3o2)cc1 (stereo not shown) = 1.49
CCCCN(CCCC)CC(O)c1cc(Cl)cc2c1-c1ccc(Cl)cc1/C2=C/c1ccc(Cl)cc1 (stereo not shown) = 0.56
CCOC(=O)C(O)(c1ccc(Cl)cc1)c1ccc(Cl)cc1 [Chlorobenzilate] = 1.53
O=C(c1ccccc1)C(Cl)Cl = 1.56
CCCCCCCCCCCCN(CCO)CCO = 1.07
CN1Cc2c(N)cccc2C(c2ccccc2)C1 (stereo not shown) = 1.59

----------
Target: UniProt:Q12809
Experiment: Tox21 qHTS FluxOR thallium flux assay in hERG-U2OS cells
Parameter: activity outcome for hERG inhibition in the assay

CCCCCCCC[N+](CCCCCCCC)(CCCCCCCC)CCCCCCCC.[Br-] [tetra-N-octylammonium bromide] = most active
Cl[C@H]1[C@H](Cl)[C@@H](Cl)[C@@H](Cl)[C@H](Cl)[C@H]1Cl [lindane] = inhibitory activity
CCCCCCCC[N+](C)(CCCCCCCC)CCCCCCCC.O=S(=O)([O-])C(F)(F)F = most active
O=c1[nH]c2ccccc2n1C1CCN(CCCC(c2ccc(F)cc2)c2ccc(F)cc2)CC1 [Pimozide] = most active
O=S1OCC2C(CO1)C1(Cl)C(Cl)=C(Cl)C2(Cl)C1(Cl)Cl (centres unmarked) [Endosulfan] = inhibitory activity
C=CCC1=C(C)C(OC(=O)C2C(C=C(C)C)C2(C)C)CC1=O (centres unmarked) [allethrin] = inhibitory activity
O=C(CCCN1CCC(O)(c2ccc(Cl)cc2)CC1)c1ccc(F)cc1 [Haloperidol] = most active

----------
Biological target: hERG (Homo sapiens)
Test: cell-based
Details: (-LOG10(IC50), µM)
Counter-ions that a name gives are not always drawn.
Attribute: IC50
Parameter: IC50 (µM)

CCOC(=O)COC(=O)c1cc(Oc2ccc(C(F)(F)F)cc2Cl)ccc1[N+](=O)[O-] = 13.8
N#C/C(=C1/SC[C@@H](c2ccc(Cl)cc2Cl)S1)n1ccnc1 = 3.13
COC(=O)C1=C(C)NC(C)=C(C(=O)OCCN2CCN(C(c3ccccc3)c3ccccc3)CC2)C1c1cccc([N+](=O)[O-])c1 (centres unmarked) [Manidipine dihydrochloride] = 7
CCCCCCCC[N+](CCCCCCCC)(CCCCCCCC)CCCCCCCC.[Br-] [tetra-N-octylammonium bromide] = 0.745
CCCCCCCCCCCCCCCCCC[N+](C)(C)C = 17.4

----------
Target: hERG (Homo sapiens, UniProt Q12809)
Assay: cell-based
Details: (-LOG10(IC50), µM)
Structures can show the parent of a compound that is named as a salt.
Attribute: IC50
Parameter: IC50 (µM)

CC(CN1c2ccccc2Sc2ccccc21)N(C)C (stereo not shown) [Promethazine hydrochloride] = 23
CCOC(=O)C1=C[C@]2(CC)CCCN3CCc4c(n1c1ccccc41)[C@@H]32 = 0.169
CCCOC/C(=N\c1ccc(Cl)cc1C(F)(F)F)n1ccnc1 = 36
O=C(N[C@@H]1N=C(c2ccccc2F)c2cccc3c2N(CC3)C1=O)c1cc2ccccc2[nH]1 = 8.82
C=CCC1=C(C)C(OC(=O)C2C(C=C(C)C)C2(C)C)CC1=O (stereo not shown) = 32.3
CS/C(C)=N/OC(=O)N(C)SN(C)C(=O)O/N=C(\C)SC = 43.6
CN1[C@@H]2CC[C@H]1C[C@@H](OC(=O)c1cc(Cl)cc(Cl)c1)C2 = 6.01
Cc1[nH]nc2c1N=C(c1ccccc1Cl)c1cc([N+](=O)[O-])ccc1N2 = 11.4
Cn1cc(C(=O)[C@@H]2CCc3nc[nH]c3C2)c2ccccc21 [Ramosetron hydrochloride] = 20.5
CCCCCCCCCCCCCC[P+](CCCCCC)(CCCCCC)CCCCCC [Trihexyltetradecylphosphonium chloride] = 0.875
CN1C[C@H](C(=O)N[C@]2(C)O[C@@]3(O)[C@@H]4CCCN4C(=O)[C@H](Cc4ccccc4)N3C2=O)C=C2c3cccc4[nH]cc(c34)C[C@H]21 [Ergotamine D-tartrate] = 11.9
CCCN(CC)CC1COC2(CCC(C(C)(C)C)CC2)O1 (stereo not shown) = 34.7
CCCCC(CC)CN1C(=O)C2C3C=CC(C3)C2C1=O (stereo not shown) [Octylbicycloheptenedicarboximide] = 49
Cc1ccccc1OP(=O)(Oc1ccccc1C)Oc1ccccc1C [Tri-o-cresyl phosphate] = 21.1
CCC(C)c1cc([N+](=O)[O-])cc([N+](=O)[O-])c1OC(=O)C=C(C)C (stereo not shown) = 30.9
O=[N+]([O-])c1ccccc1Nc1ccccc1 = 48.7
C[C@@H]1CC(=O)NN=C1c1ccc(NN=C(C#N)C#N)cc1 = 5.67
Cc1ccc(O)c(-n2nc3ccccc3n2)c1 = 36
O=[N+]([O-])c1cc(C(F)(F)F)c(Cl)c([N+](=O)[O-])c1Cl = 34.7
Fc1ccc(Oc2ccnc3cc(Cl)cc(Cl)c23)cc1 = 22.7
CCC(C)Nc1c([N+](=O)[O-])cc(C(C)(C)C)cc1[N+](=O)[O-] (stereo not shown) = 23.6
Cc1ccsc1/C=C/C1=NCCCN1C [Morantel tartrate] = 19.7
O=C(Oc1ccccc1)c1ccc2ccccc2c1O [Phenyl 1-hydroxy-2-naphthoate] = 49
COc1ccc(C(=CC(=O)N2CCOCC2)c2ccc(Cl)cc2)cc1OC = 11.8
CCCC[C@H]1CN(CC2CCOCC2)C(=O)OC12CCN(C1(C)CCN(C(=O)c3c(C)ncnc3C)CC1)CC2 = 13.6
CSCCCN=C=S [3-(Methylthio)propyl isothiocyanate] = 36.7
ClC(Cl)(Cl)c1ccc(C(Cl)(Cl)Cl)cc1 = 14.2
CCCOC(C(=O)OC1CCN(C)CC1)(c1ccccc1)c1ccccc1 [Propiverine hydrochloride] = 14.2
CCCC[P+](CCCC)(CCCC)CCCC [Tetrabutylphosphonium bromide] = 16
CC1CCCCN1CCCOC(=O)c1ccc(OC2CCCCC2)cc1 (stereo not shown) = 2.68
O=C(Oc1ccccc1)c1cccc(C(=O)Oc2ccccc2)c1 [Diphenyl isophthalate] = 25
CCCCCCCCCCCCCCCC[N+](C)(C)Cc1ccccc1 [Benzylhexadecyldimethylammonium chloride] = 3.94
FC(F)(F)c1cccc(C2=CCN(CCc3ccc4ccccc4c3)CC2)c1 [Xaliproden hydrochloride] = 1.76
CN1CCCN(C(c2ccccc2)c2ccc(Cl)cc2)CC1 (stereo not shown) = 1.83

----------
Molecular target: hERG (Homo sapiens, UniProt Q12809)
Test: cell-based
Settings: (-LOG10(IC50), µM)
Where a name gives a salt, the structure may show the parent alone.
Please use y for IC50 under 20 µM and n for everything else, ties included.

Oc1cc(Cl)ccc1Oc1ccc(Cl)cc1Cl = n
CN1CCC(=C2c3ccccc3CCc3sccc32)CC1 = y
CCCCCCCCCCCCCC[P+](CCCCCC)(CCCCCC)CCCCCC.N#C[N-]C#N = y
CCCCCCCCCCCCCN1CC(C)OC(C)C1 (stereo not shown) = y
Cc1ccc(C(=O)Oc2ccc(C(O)CNC(C)(C)C)cc2OC(=O)c2ccc(C)cc2)cc1 (stereo not shown) = y
O=C(CCCN1CCC2(CC1)C(=O)NCN2c1ccccc1)c1ccc(F)cc1 = y
CCCCCCCCCCCCCCCC[N+](C)(C)CCN(Cc1ccc(OC)cc1)c1ncccn1 [Thonzonium bromide] = y
CCCCCCOC(=O)NC(=N)c1ccc(NCc2nc3cc(C(=O)N(CCC(=O)OCC)c4ccccn4)ccc3n2C)cc1 [Dabigatran etexilate] = y
CCCCC(CC)COC(=O)C(C#N)=C(c1ccccc1)c1ccccc1 (stereo not shown) = y
CCOC(=O)NNc1ccc(N(CC)CC(C)O)nn1 (stereo not shown) = n
Clc1nc(C(Cl)(Cl)Cl)c(Cl)c(Cl)c1Cl = n
N=C(N)NN=C(/C=C/c1ccc([N+](=O)[O-])o1)/C=C/c1ccc([N+](=O)[O-])o1 = y
CCOC(=O)C1(c2ccccc2)CCN(CCC(C#N)(c2ccccc2)c2ccccc2)CC1 [Diphenoxylate hydrochloride] = y
O=C(CCN1CCC(c2ccccc2)C1)c1ccc2c(c1)OCCO2 (stereo not shown) = y
CCCCCCCCCCCCCCN(CCO)CCO = y
CCc1oc2ccccc2c1C(=O)c1cc(Br)c(O)c(Br)c1 = y
O=C1c2ccccc2C(=O)N1CCc1noc(-c2ccc(CN3CCCCCC3)s2)n1 = n
